Property: IC50; scope: individual compounds
Assayed System: full-length beta-Catenin (Uniprot ID P35222) (Homo sapiens)
Construct: 10 nM full-length beta-Catenin (Uniprot ID P35222)
Assay Explanation: Fluorescence polarization IC50 (beta-catenin / 5FAM-TCF4 10-53 competition)
Type: binding
Condition Description: fluorescence polarization; read-out: beta-Catenin FP IC50
Note: unit nM is implicit; provide only the numeric part.

Compound	Unit Label	IC50
CC[C@H](C)[C@@H]1NC(=O)[C@H](CC(=O)O)NC(=O)[C@]2(CC=CCCCC3(CCCC=CCCCCCC[C@@](C)(C(=O)N[C@@H](Cc4ccccc4)C(=O)N[C@@H](Cc4csc5ccccc45)C(=O)N[C@@H](Cc4c[nH]c5ccccc45)C(N)=O)NC(=O)[C@H](CCC(N)=O)NC(=O)[C@H](Cc4ccccc4)NC(=O)[C@H](C)NC(=O)[C@H](C)NC(=O)[C@H](CCC(=O)O)NC(=O)[C@H](CC(=O)O)NC3=O)NC1=O)CCCN2C(C)=O (stereo partly shown) [I-644]	nM	808
CC(=O)N1CCC[C@]12CC=CCCCC1(CCCC=CCCCOC(=O)N3CC[C@@](C(=O)N[C@@H](Cc4ccccc4C(F)(F)F)C(=O)N[C@@H](Cc4csc5ccccc45)C(=O)N[C@@H](CC(=O)N4CCN(C)CC4)C(N)=O)(C3)NC(=O)[C@H](CC(C)C)NC(=O)[C@H](Cc3ccccc3)NC(=O)[C@H](C)NC(=O)[C@H](C)NC(=O)[C@H](Cc3cccc(C(=O)O)c3)NC(=O)[C@H](CC(=O)O)NC1=O)NC(=O)[C@H](CC(C)(C)C)NC(=O)[C@H](CC(=O)O)NC2=O (stereo partly shown) [I-1612]	nM	10
CC(=O)N1CCC[C@]12CC=CCCCC1(CCCC=CCCCOC(=O)N3CC[C@@](C(=O)N[C@@H](Cc4ccccc4)C(=O)N[C@@H](Cc4csc5ccccc45)C(=O)N[C@@H](CC(=O)N4CCOCC4)C(N)=O)(C3)NC(=O)[C@H](CC(C)C)NC(=O)[C@H](Cc3ccccc3)NC(=O)[C@H](C)NC(=O)[C@H](CCCCNC(=O)C(F)(F)F)NC(=O)[C@H](CCC(N)=O)NC(=O)[C@H](CC(=O)O)NC1=O)NC(=O)[C@H](CC1CCCCC1)NC(=O)[C@H](CC(N)=O)NC2=O (stereo partly shown) [I-2525]	nM	4290

Next:
Reported IC50 for CC(=O)N1CCC[C@]12CC=CCCCC1(CCCC=CCCCOC(=O)N3CC(C(=O)N[C@@H](Cc4ccccc4C(F)(F)F)C(=O)N[C@@H](Cc4csc5ccccc45)C(=O)N[C@@H](CCC(N)=O)C(N)=O)(C3)NC(=O)[C@H](CC(C)C)NC(=O)[C@H](Cc3ccccc3)NC(=O)[C@H](C)NC(=O)C(C)(C)NC(=O)[C@H](Cc3cccc(C(=O)O)c3)NC(=O)[C@H](CC(=O)O)NC1=O)NC(=O)[C@H](CC(C)(C)C)NC(=O)[C@H](CC(=O)O)NC2=O (stereo partly shown) [I-2613] : what is it?
183

* * *

Property: pIC50; scope: individual compounds
Assayed System: beta-catenin/TCF4 engagement (Homo sapiens)
Construct: expressed in transfected cells; host or cells: HEK293
Sequence (P35222 whole entry): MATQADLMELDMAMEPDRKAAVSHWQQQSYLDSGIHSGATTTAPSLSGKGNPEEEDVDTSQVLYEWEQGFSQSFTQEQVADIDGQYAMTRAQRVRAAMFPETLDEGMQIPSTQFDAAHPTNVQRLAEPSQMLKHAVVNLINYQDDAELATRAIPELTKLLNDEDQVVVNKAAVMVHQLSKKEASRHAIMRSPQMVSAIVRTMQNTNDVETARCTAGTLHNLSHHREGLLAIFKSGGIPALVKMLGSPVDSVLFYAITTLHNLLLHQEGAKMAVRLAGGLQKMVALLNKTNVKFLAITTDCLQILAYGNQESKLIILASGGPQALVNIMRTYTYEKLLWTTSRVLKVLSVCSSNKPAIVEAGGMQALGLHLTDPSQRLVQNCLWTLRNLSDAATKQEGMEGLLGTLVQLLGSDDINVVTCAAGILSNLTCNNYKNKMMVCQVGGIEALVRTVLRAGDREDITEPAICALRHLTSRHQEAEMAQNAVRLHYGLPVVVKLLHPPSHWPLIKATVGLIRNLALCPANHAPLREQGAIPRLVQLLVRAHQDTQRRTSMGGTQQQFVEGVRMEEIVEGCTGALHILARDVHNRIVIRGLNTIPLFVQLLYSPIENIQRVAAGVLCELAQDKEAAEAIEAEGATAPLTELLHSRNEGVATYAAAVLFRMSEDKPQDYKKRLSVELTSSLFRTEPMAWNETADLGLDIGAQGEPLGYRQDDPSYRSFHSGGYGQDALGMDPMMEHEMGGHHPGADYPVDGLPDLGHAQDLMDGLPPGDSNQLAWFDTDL
Assay Explanation: Nano-BRET target engagement assay (B-cat-Halo & TCF4-Luc in HEK293 cells)
Assay type: cell-based
Condition Description: absolute IC50; read-out: NanoBRET Abs IC50
pIC50: −log10 of the molar value.

Compound	Value
CC(=O)N1CCC[C@]12CC=CCCCC1(CCCC=CCCCOC(=O)N3CC[C@@](C(=O)N[C@@H](Cc4ccccc4Cl)C(=O)N[C@@H](Cc4csc5ccccc45)C(=O)N[C@@H](C(N)=O)[C@H](C)O)(C3)NC(=O)[C@H](CC(C)C)NC(=O)[C@H](Cc3ccccc3)NC(=O)[C@H](C)NC(=O)[C@H](C)NC(=O)[C@H](CC(=O)O)NC(=O)[C@H](CC(=O)O)NC1=O)NC(=O)[C@H](Cc1ccccc1)NC(=O)[C@H](CC(=O)O)NC2=O (stereo partly drawn) [I-1146]	< 4.70
CC(=O)N1CCC[C@]12CC=CCCCC1(CCCC=CCCCOC(=O)N3CC[C@@](C(=O)N[C@@H](Cc4ccsc4)C(=O)N[C@@H](Cc4csc5ccccc45)C(=O)N[C@@H](CCC(N)=O)C(N)=O)(C3)NC(=O)[C@H](CC(C)C)NC(=O)[C@H](Cc3ccccc3C#N)NC(=O)[C@H](C)NC(=O)[C@H](C)NC(=O)[C@H](CC(=O)O)NC(=O)[C@H](CC(=O)O)NC1=O)NC(=O)[C@H](CC(C)(C)C)NC(=O)[C@H](CC(=O)O)NC2=O (stereo partly drawn) [I-1200]	< 4.70

Reported pIC50 for CC(=O)N1CCC[C@]12CC=CCCCC1(CCCC=CCCCOC(=O)N3CC[C@@](C(=O)N[C@@H](Cc4ccccc4Cl)C(=O)N[C@@H](Cc4csc5ccccc45)C(=O)N[C@@H](CC(C)C)C(N)=O)(C3)NC(=O)[C@H](CC(C)C)NC(=O)[C@H](Cc3ccccc3)NC(=O)[C@H](C)NC(=O)[C@H](C)NC(=O)[C@H](CC(=O)O)NC(=O)[C@H](CC(=O)O)NC1=O)NC(=O)[C@H](CC(C)C)NC(=O)[C@H](CC(=O)O)NC2=O (stereo partly drawn) [I-1418] : what is it?
< 4.70
